Target: SARS-CoV-2 main protease (M^pro) (Severe acute respiratory syndrome coronavirus 2)
Assay: Rapid-Fire MS Biochemical Assay measuring Mpro activity (12.5 nM Mpro)
Details: Table 1A, Mpro inhibition, 5 μM substrate peptide, 30 min
With a cut-off of 40 nM, any IC50 strictly below it is called t; any IC50 meeting it or above is called f.

N#CC1CN(c2ccc(F)cn2)C(=O)N1c1cncc2ccccc12 (stereo not shown) [Compound 8] ... f
N#CC1CN(c2cccc(Cl)c2)C(=O)N1c1cncc2ccccc12 (racemic) [Compound 2] ... t

In the record for N#C[C@H]1CN(c2cccc(Cl)c2)C(=O)N1c1cncc2ccccc12 (single isomer, unassigned) [Compound 2a] , is IC50 less than 40 nM? t

In the record for N#CC1CN(c2ccc(Cl)cn2)C(=O)N1c1cncc2ccccc12 (racemic) [Compound 10] , is IC50 less than 40 nM? t

In the record for N#CC1CN(c2ccc(C(F)(F)F)cc2)C(=O)N1c1cncc2ccccc12 (racemic) [Compound 4] , is IC50 less than 40 nM? t

In the record for N#CC1CN(c2ccc(F)cc2)C(=O)N1c1cncc2ccccc12 (racemic) [Compound 6] , is IC50 less than 40 nM? t
